# test: lymphoblastoid cell cytotoxicity, dose response, cytotoxicity control, plate reader, dry powder, set 2 (AID 624367)
# measurement-parameters: Lymphoblastoid cell line (LCL) cytotoxicity, plate reader; at 35 µM (top of the series)
Active and inactive are the calls of the source. How the calls were made is not given here.
measured-endpoint: activity change, negative = cytotoxicity

Query (molecule): COc1ccc(S(=O)(=O)N(C)C[C@@H]2Oc3ncc(/C=C/c4ccccc4)cc3C(=O)N([C@@H](C)CO)C[C@H]2C)cc1 ; field requested: activity change, negative = cytotoxicity -4% (inactive)

Query (molecule): C[C@@H]1CN([C@H](C)CO)C(=O)c2c(c3ccccc3n2C)-c2ccccc2CO[C@H]1CN(C)C(=O)Nc1ccc(F)cc1 ; field requested: activity change, negative = cytotoxicity 1.26% (inactive)

Query (molecule): Cc1noc(C)c1S(=O)(=O)Nc1ccc2c(c1)C(=O)N([C@@H](C)CO)C[C@@H](C)[C@@H](CN(C)Cc1ccc(C(F)(F)F)cc1)OCCCC[C@@H](C)O2 ; field requested: activity change, negative = cytotoxicity -5.16% (inactive)

Query (molecule): O=C(Cc1ccccn1)NCC[C@H]1CC[C@@H](NC(=O)Nc2ccc(Cl)cc2)[C@@H](CO)O1 ; field requested: activity change, negative = cytotoxicity -2.19% (inactive)

Query (molecule): O=C(C[C@@H]1CC[C@@H]2[C@H](COC[C@@H](O)CN2Cc2ccc(Oc3ccccc3)cc2)O1)N1CCc2ccccc2C1 ; field requested: activity change, negative = cytotoxicity -13.2% (inactive)

Query (molecule): Cc1noc(C)c1S(=O)(=O)Nc1ccc2c(c1)C(=O)N([C@@H](C)CO)C[C@H](C)[C@H](CN(C)Cc1ccc(C(F)(F)F)cc1)OCCCC[C@H](C)O2 ; field requested: activity change, negative = cytotoxicity -5.45% (inactive)

###

The entries below are paired with their reported activity change, negative = cytotoxicity.
# test: lymphoblastoid cell cytotoxicity, dose response, cytotoxicity control, plate reader, dry powder, set 2 (AID 624367)
# measurement-parameters: Lymphoblastoid cell line (LCL) cytotoxicity, plate reader; at 35 µM (top of the series)
# output: bare number, implied unit %

Below are worked cases with known answers.
INSERT INTO results (compound_structure_string, measured_endpoint, data_value) VALUES
  ('O=C(Cc1ccccn1)NCC[C@@H]1CC[C@H](NC(=O)Nc2ccc(Cl)cc2)[C@@H](CO)O1', 'activity change, negative = cytotoxicity', 6.35),
  ('CN1C(=O)c2cc(NC(=O)Cc3cccs3)ccc2OC[C@@H]2O[C@H](CC(=O)NCc3ccc(-c4ccccc4)cc3)CC[C@H]21', 'activity change, negative = cytotoxicity', -7.27);

Consider the additional molecule presented here.
Query (molecule): CC(C)(C)[S@@](=O)N1Cc2cc(C(=O)NCCc3ccncc3)nc(-c3cccc(-c4cccnc4)c3)c2[C@H]1CCO ; field requested: activity change, negative = cytotoxicity 4.85

###

# test: lymphoblastoid cell cytotoxicity, dose response, cytotoxicity control, plate reader, dry powder, set 2 (AID 624367)
# measurement-parameters: Lymphoblastoid cell line (LCL) cytotoxicity, plate reader; at 30 µM (top of the series)
measured-endpoint: activity change, negative = cytotoxicity (%)
# output: bare number, implied unit %

Below are worked cases with known answers.
INSERT INTO results (compound_structure_string, unit_abbrev, data_value) VALUES
  ('Cc1cc(C(=O)Nc2ccc3c(c2)C(=O)N(C)[C@@H]2CC[C@H](CC(=O)NCc4ccc(-c5ccccc5)cc4)O[C@H]2CO3)no1', '%', -7.18),
  ('Cc1noc(C)c1S(=O)(=O)Nc1ccc2c(c1)C(=O)N([C@@H](C)CO)C[C@@H](C)[C@H](CN(C)Cc1ccc(C(F)(F)F)cc1)OCCCC[C@H](C)O2', '%', -0.638),
  ('CN(C)C(=O)c1cccc(-c2cccc(-c3nc(C(=O)NCc4ccccc4)cc4c3[C@@H](CCO)N([S@](=O)C(C)(C)C)C4)c2)c1', '%', 8.17),
  ('Cc1noc(C)c1S(=O)(=O)Nc1ccc2c(c1)C(=O)N([C@@H](C)CO)C[C@H](C)[C@H](CN(C)Cc1ccc(C(F)(F)F)cc1)OCCCC[C@@H](C)O2', '%', -7.54);

Consider the additional compound presented here.
Query (compound): C[C@H](NC(=O)C[C@@H]1C=C[C@H](NC(=O)Cc2ccccn2)[C@H](CO)O1)c1ccccc1 ; field requested: activity change, negative = cytotoxicity 6.34

###

The entries below are paired with their reported activity change, negative = cytotoxicity.
# test: lymphoblastoid cell cytotoxicity, dose response, cytotoxicity control, plate reader, dry powder, set 2 (AID 624367)
# measurement-parameters: Lymphoblastoid cell line (LCL) cytotoxicity, plate reader; at 35 µM (top of the series)
The source made the active and inactive calls. The rule behind the calls is not given here.

Below are worked cases with known answers.
INSERT INTO results (compound_structure_string, data_value) VALUES
  ('C[C@@H](NC(=O)C[C@H]1C[C@@H]2c3cc(NC(=O)c4cccnc4)ccc3O[C@@H]2[C@@H](CO)O1)c1ccccc1', '-0.579% (inactive)'),
  ('Cc1noc(C)c1S(=O)(=O)Nc1ccc2c(c1)C(=O)N([C@@H](C)CO)C[C@H](C)[C@@H](CN(C)Cc1ccc(C(F)(F)F)cc1)OCCCC[C@H](C)O2', '-1.76% (inactive)'),
  ('COc1ccc(CNC(=O)c2cc3c(c(-c4cccc(-c5ccc(C#N)cc5)c4)n2)[C@@H](CCO)N([S@](=O)C(C)(C)C)C3)cc1', '-0.743% (inactive)'),
  ('Cc1cc(C(=O)Nc2ccc3c(c2)C(=O)N(C)[C@H]2CC[C@@H](CC(=O)NCc4ccc(-c5ccccc5)cc4)O[C@H]2CO3)no1', '-17.8% (inactive)'),
  ('COc1ccccc1C#Cc1cnc2c(c1)C(=O)N([C@@H](C)CO)C[C@H](C)[C@@H](CN(C)C(=O)c1ccc3c(c1)OCO3)O2', '16.2% (inactive)');

Query (compound): CC(C)(C)[S@@](=O)N1Cc2cc(C(=O)NCc3ccccn3)nc(-c3cccc(-c4ccccc4F)c3)c2[C@H]1CCO ; field requested: activity change, negative = cytotoxicity -1.27% (inactive)

Query (compound): C[C@@H](NC(=O)C[C@@H]1C=C[C@@H](NC(=O)Cc2ccccn2)[C@@H](CO)O1)c1ccccc1 ; field requested: activity change, negative = cytotoxicity -0.658% (inactive)

Query (compound): C[C@H](NC(=O)C[C@H]1C[C@@H]2c3cc(NC(=O)c4cccnc4)ccc3O[C@@H]2[C@@H](CO)O1)c1ccccc1 ; field requested: activity change, negative = cytotoxicity -1.74% (inactive)

Query (compound): C[C@H]1CN([C@@H](C)CO)C(=O)Cc2cc(NC(=O)Cc3ccccc3)ccc2O[C@@H]1CN(C)Cc1ccc(C(F)(F)F)cc1 ; field requested: activity change, negative = cytotoxicity -5.68% (inactive)

Query (compound): O=C(C[C@H]1C[C@@H]2c3cc(NS(=O)(=O)c4ccc(F)cc4)ccc3O[C@@H]2[C@H](CO)O1)NC1CCCCC1 ; field requested: activity change, negative = cytotoxicity 0.09% (inactive)

Query (compound): O=C(Cc1ccccn1)NCC[C@H]1CC[C@H](NC(=O)Nc2ccc(Cl)cc2)[C@@H](CO)O1 ; field requested: activity change, negative = cytotoxicity 3.54% (inactive)

Query (compound): C[C@@H]1CN([C@H](C)CO)S(=O)(=O)c2ccc(C#C[C@@H](C)O)cc2O[C@H]1CN(C)Cc1ccc(-c2ccccc2)cc1 ; field requested: activity change, negative = cytotoxicity -3.17% (inactive)

Query (compound): C[C@H]1CN([C@@H](C)CO)C(=O)c2c(c3ccccc3n2C)-c2ccccc2CO[C@@H]1CN(C)C(=O)Nc1ccc(F)cc1 ; field requested: activity change, negative = cytotoxicity 1.36% (inactive)

Query (compound): COC(=O)C[C@H]1C[C@H]2c3cc(NC(=O)CN(C)C)ccc3O[C@H]2[C@H](CO)O1 ; field requested: activity change, negative = cytotoxicity 3.27% (inactive)

Query (compound): C[C@H](NC(=O)C[C@@H]1C=C[C@H](NC(=O)Cc2ccccn2)[C@@H](CO)O1)c1ccccc1 ; field requested: activity change, negative = cytotoxicity 4.27% (inactive)

Query (compound): C[C@H](NC(=O)C[C@H]1C=C[C@@H](NC(=O)Cc2ccccn2)[C@H](CO)O1)c1ccccc1 ; field requested: activity change, negative = cytotoxicity 9.63% (inactive)

Query (compound): O=C(Cc1ccccn1)NCC[C@H]1CC[C@@H](NC(=O)Nc2ccc(Cl)cc2)[C@H](CO)O1 ; field requested: activity change, negative = cytotoxicity -1.08% (inactive)

Query (compound): COc1ccccc1C#Cc1cnc2c(c1)C(=O)N([C@H](C)CO)C[C@H](C)[C@@H](CN(C)C(=O)c1ccc3c(c1)OCO3)O2 ; field requested: activity change, negative = cytotoxicity 8.25% (inactive)

Query (compound): Cc1noc(C)c1S(=O)(=O)Nc1ccc2c(c1)C(=O)N([C@@H](C)CO)C[C@@H](C)[C@H](CN(C)Cc1ccc(C(F)(F)F)cc1)OCCCC[C@@H](C)O2 ; field requested: activity change, negative = cytotoxicity -6.19% (inactive)

Query (compound): C[C@H](CO)N1C[C@H](C)[C@@H](CN(C)C(=O)Nc2ccc(F)cc2)OCc2ccccc2-c2c(n(C)c3ccccc23)C1=O ; field requested: activity change, negative = cytotoxicity -2.81% (inactive)

Query (compound): Cc1noc(C)c1S(=O)(=O)Nc1ccc2c(c1)C(=O)N([C@H](C)CO)C[C@H](C)[C@H](CN(C)Cc1ccc(C(F)(F)F)cc1)OCCCC[C@@H](C)O2 ; field requested: activity change, negative = cytotoxicity -2.12% (inactive)

Query (compound): O=C(C[C@@H]1C[C@@H]2c3cc(NC(=O)c4cccnc4)ccc3O[C@@H]2[C@H](CO)O1)NCC(F)(F)F ; field requested: activity change, negative = cytotoxicity -0.745% (inactive)

Query (compound): C[C@H](NC(=O)C[C@@H]1C=C[C@@H](NC(=O)Cc2ccccn2)[C@@H](CO)O1)c1ccccc1 ; field requested: activity change, negative = cytotoxicity -1.09% (inactive)

Query (compound): C[C@H]1CN([C@@H](C)CO)C(=O)c2c(c3ccccc3n2C)-c2ccccc2CO[C@H]1CN(C)C(=O)Nc1ccc(F)cc1 ; field requested: activity change, negative = cytotoxicity 0.119% (inactive)

Query (compound): COc1ccccc1C#Cc1ccc([C@H]2[C@H](C#N)N(C(=O)C3CC3)[C@H]2CO)cc1 ; field requested: activity change, negative = cytotoxicity -4.85% (inactive)

Query (compound): CO[C@H](CN(C)S(=O)(=O)c1cccc(Cl)c1)[C@@H](C)CN([C@H](C)CO)S(=O)(=O)c1ccc(Cl)cc1 ; field requested: activity change, negative = cytotoxicity -9.42% (inactive)

Query (compound): CS(=O)(=O)Nc1ccc2c(c1)[C@H]1C[C@@H](CC(=O)NCC3CC3)O[C@@H](CO)[C@H]1O2 ; field requested: activity change, negative = cytotoxicity -1.05% (inactive)

Query (compound): CN1C(=O)c2cc(NC(=O)c3ccc(C(F)(F)F)cc3)ccc2OC[C@@H]2O[C@@H](CC(=O)NC3Cc4ccccc4C3)CC[C@H]21 ; field requested: activity change, negative = cytotoxicity -7.43% (inactive)

Query (compound): Cc1ccc(S(=O)(=O)N(C)C[C@H]2Oc3cc(C#Cc4ccncc4)ccc3S(=O)(=O)N([C@@H](C)CO)C[C@H]2C)cc1 ; field requested: activity change, negative = cytotoxicity -6.9% (inactive)

Values compiled from PubChem BioAssay AID624367.
